- Assay Overview: in vitro
- Details: compound within KD extract
Recorded Endpoint: Cross BBB potential

[[record]]
compound = "C[C@]12C[C@@H](O)[C@H]3[C@@H](CC[C@]4(O)C[C@@H](O)CC[C@]34CO)[C@@]1(O)CC[C@@H]2c1ccc(=O)oc1 [11α,19-dihydroxytelocinobufagin]"
recorded_endpoint = "Cross BBB potential"
observed_result = "-"

[[record]]
compound = "COc1c(O)cc2oc(-c3ccc(O)c(O)c3)cc(=O)c2c1O [Eupafolin]"
recorded_endpoint = "Cross BBB potential"
observed_result = "+++ (log Pe > −4.5)"

[[record]]
compound = "COc1cc(C(=O)O)ccc1O [Vanillic acid]"
recorded_endpoint = "Cross BBB potential"
observed_result = "+++ (log Pe > −4.5)"

[[record]]
compound = "CC(=O)O[C@H]1C[C@@H](O)[C@]2(C=O)[C@H]3CC[C@]4(C)[C@@H](c5ccc(=O)oc5)CC[C@]4(O)[C@@H]3CC[C@]2(O)C1 [Bersaldegenin-3-acetate]"
recorded_endpoint = "Cross BBB potential"
observed_result = "-"


====

- Assay Overview: in vitro
- Details: PAMPA
Recorded Endpoint: Cross BBB potential

The following compounds have reported results that may help.
[[record]]
compound = "Oc1cc(O)c2c(c1)O[C@H](c1ccc(O)c(O)c1)[C@H](O)[C@H]2c1c(O)cc(O)c2c1O[C@H](c1ccc(O)c(O)c1)[C@H](O)C2 [Procyanidin B2]"
observed_result = "-"

[[record]]
compound = "O=C(O)[C@]1(O)C[C@@H](O)[C@@H](O)[C@H](O)C1 [Quinic acid]"
observed_result = "-"

[[record]]
compound = "C[C@H]1[C@H](C)CC[C@]2(C(=O)O)CC[C@]3(C)C(=CC[C@@H]4[C@@]5(C)C[C@@H](O)[C@H](O)C(C)(C)[C@@H]5CC[C@]43C)[C@H]12 [Corosolic acid]"
observed_result = "++"

[[record]]
compound = "CC/C=C/CC(O)C(O)/C=C/C(O)CCCCCCCC(=O)O (centres unmarked)"
observed_result = "+++"

[[record]]
compound = "CC(C)c1cc2c(c(O)c1O)C(=O)C1CCCC(C)(C)C1CC2 (centres unmarked) [Rosmaridiphenol]"
observed_result = "+"


Suppose we examine the compound O=C(/C=C/c1ccc(O)c(O)c1)O[C@@H](C(=O)O)[C@@H](O)C(=O)O [Caftaric acid] ; what Cross BBB potential value has been reported?
-

====

- Assay Overview: in vitro
- Details: PAMPA, pH 7.4, PAMPA-BBB log Pe, compound within LPLE (Nothofagus pumilio, lenga PLE extract); N.D = not detected in acceptor
Recorded Endpoint: Papp at 4 h (×10⁻⁶ cm/s)
// units = ×10⁻⁶ cm/s; emit number, no label

[[record]]
compound_structure = "COc1cc(C=O)ccc1O"
recorded_endpoint = "Papp at 4 h"
observed_result = 33.1

[[record]]
compound_structure = "C[C@H]1[C@H](C)CC[C@]2(C(=O)O)CC[C@]3(C)C(=CC[C@@H]4[C@@]5(C)C[C@@H](O)[C@H](O)C(C)(C)[C@@H]5CC[C@]43C)[C@H]12"
recorded_endpoint = "Papp at 4 h"
observed_result = 8.51

[[record]]
compound_structure = "O=C(/C=C/c1ccc(O)c(O)c1)c1ccc(O)cc1O"
recorded_endpoint = "Papp at 4 h"
observed_result = 16.6


Next molecule, Papp at 4 h to be filled in.
Suppose we examine the molecule COc1cc(C(=O)O)cc(OC)c1O ; what Papp at 4 h value has been reported?
0.145

Where do these numbers come from? They come from paper PMC9243654.
